test system: UACC-257 melanoma; experiment: NCI-60 one-dose screen, 48 h; conditions: 10 µM unless noted
About 83,000 compounds went through this panel and 20% of them were active in at least one assay; those are over-represented in the sample as a whole. Activity calls are given as the source filed them. Rule for the calls: active = growth percent below 10; inactive = the rest.
Pick one: active, inactive

Can you look up the reported call for C=C(C)[C@@H]1CC[C@]2(C(=O)OC)CC[C@]3(C)[C@H](CC[C@@H]4[C@@]5(C)C/C(=C/c6ccc(OC)cc6)C(=O)C(C)(C)[C@@H]5CC[C@]43C)[C@@H]12 for me?
inactive

Which result was noted for this compound in the test: OCc1ccc(N2CCc3cccc(F)c3C2)cc1Cl
active

Assay result, entry C=CCSSc1ncnc2c1ncn2C1OC(CO)C(O)C1O (stereo not given) — outcome?
inactive

What outcome does the record of this test show for O=[N+]([O-])c1cnc(N2CCN(CC3CC3)CC2)nc1N1CCN(CC2CC2)CC1 ?
inactive

Called result for Cc1cc(NS(=O)(=O)c2ccc(-c3cnc(C4CC4)o3)cc2)ccc1Cl
inactive

Query: recorded result category for CC(C)(C)N1CCC1CN (stereo not given) in this test
active

Which outcome did this test record for the compound C#CCOc1ccc2ncnc(NCc3cccc(NC(=O)CCl)c3)c2c1 ?
inactive

Lab log entry: CCOC(=O)n1cc(-c2nonc2-c2cn(C)c3ncccc23)c2ccccc21 — outcome as called in the assay?
inactive

# lookup: test call for O=C(CN(C(=O)Cn1c(=O)n2nnnc2c2ccccc21)c1ccccc1C(F)(F)F)Nc1ccc(C(F)(F)F)cc1
inactive

Record request — test call for C#Cc1cccc(NC(=O)c2ccccc2NC(=O)CCl)c1
inactive

---

For each record, write down the corresponding growth.
test system: OVCAR-4 ovarian; test: NCI-60 one-dose screen, 48 h (100 = growth as untreated, 0 = no growth, -100 = all killed); details: 10 µM unless noted
About 83,000 compounds went through this panel and 20% of them were active in at least one assay; those are over-represented in the sample as a whole. The source made the active and inactive calls. How the source made its calls: active means growth percent below 10; inactive means the rest.

Quick check: growth of O=C(Cc1ccccc1Nc1c(Cl)cccc1Cl)NN1C(=O)/C(=C/c2ccc(Br)cc2)SC1=S ?
114% (inactive)

I have this molecule here, COc1cccc(-c2nc3sccn3c2-c2ccnc(NCCCNS(=O)(=O)c3c(Cl)cccc3Cl)c2)c1 , and I need its recorded growth.
56.7% (inactive)

Bench note: what growth did CC1=C[C@H]2c3c(c(O)c(O)c4oc5c(C)cccc5c(=O)c34)[C@H](c3cc(O)c(O)c4oc5c(C)cccc5c(=O)c34)[C@H]2C(C)(C)C1 show?
11.3% (inactive)

Could you share which growth value was measured for C#CCOc1ccc2ncnc(N3CCC(NC(=O)CCl)CC3)c2c1 ?
36.5% [8.25 µM] (inactive)

---

Test system: SW-620 colon
Assay: NCI-60 one-dose screen, 48 h (100 = growth as untreated, 0 = no growth, -100 = all killed)
Settings: 10 µM unless noted
Experimental: Growth inhibition of the SW-620 human tumor cell line is measured as a screen for anti-cancer activity. Cells are grown in 96 well plates and exposed to the test compound for 48 hours. Compounds are tested at a single concentration, which is 10^-5 M for most compounds. The reported endpoint is percent growth (GI% or GIPRCNT), where numbers from 0 - 100% represent growth inhibition, and numbers from -100% - 0 represent cell death. For example, a value of 40 represents 60% growth inhibition. […]
Compounds without any hit were thinned out: in the full panel of roughly 83,000, 20% have a hit.
Binning of growth into classes: label 0 (below 10%), label 1 (10% to below 50%), label 2 (50% or more)

Sort into band: COc1ccc(/C=C\c2cc(OC)c(OC)c(OC)c2)cc1OC(=O)c1cccc(Cn2cc(CCOC(=O)[C@H](N)Cc3cn(C)c4ccccc34)nn2)c1
label 1

Any idea which band O=C1Nc2c(ccc(Cl)c2Cl)/C1=C\c1cc(C(F)(F)F)cc(C(F)(F)F)c1 is in?
label 0

Dear colleague, I would appreciate it if you could identify the bin for CC(=O)c1cc2c(N)c(C(=O)Nc3ccccc3)sc2nc1C and reply at your convenience.
label 2

Exercise: read the entry COc1ccc(CCNc2nc(SC)nc(-c3cccc([N+](=O)[O-])c3)c2C#N)cc1OC and state which class it falls under.
label 2

Note: place this molecule into its band. Item: O=C(Nc1cccc2[nH]c(C(F)(F)F)nc12)c1ccc(-n2cnnn2)cc1
label 2

Which class does CSc1ccc(-c2n[nH]nc2-c2cc3ccccc3s2)cc1 fall in?
label 1

Assign a category based on measured growth for O=c1c(F)cn(Cc2ccccc2CCl)c(=O)n1Cc1ccccc1CCl and give only the class name.
label 0

Sort CN(C)S(=O)(=O)c1cccc(-c2nc3sc4c(c3c(=O)[nH]2)CCCC4)c1 into one of the categories.
label 1

Sort C[n+]1ccccc1/C=C/c1ccc2cccc(O)c2n1 into one of the categories.
label 2

State the band of Nc1nc2ccc3[nH]ncc3c2c2c1CCCC2
label 0
